Target: sodium ion channel of Trpm5 bitter receptor (Mus musculus, UniProt Q9JJH7)
Construct: Put the removed tongue in a 2 ml EP tube, add 1-1.5 ml of 0.25% trypsin solution; from tissue; host or cells: cells dissociated with trypsin from mouse tongue
Sequence (Q9JJH7 whole entry): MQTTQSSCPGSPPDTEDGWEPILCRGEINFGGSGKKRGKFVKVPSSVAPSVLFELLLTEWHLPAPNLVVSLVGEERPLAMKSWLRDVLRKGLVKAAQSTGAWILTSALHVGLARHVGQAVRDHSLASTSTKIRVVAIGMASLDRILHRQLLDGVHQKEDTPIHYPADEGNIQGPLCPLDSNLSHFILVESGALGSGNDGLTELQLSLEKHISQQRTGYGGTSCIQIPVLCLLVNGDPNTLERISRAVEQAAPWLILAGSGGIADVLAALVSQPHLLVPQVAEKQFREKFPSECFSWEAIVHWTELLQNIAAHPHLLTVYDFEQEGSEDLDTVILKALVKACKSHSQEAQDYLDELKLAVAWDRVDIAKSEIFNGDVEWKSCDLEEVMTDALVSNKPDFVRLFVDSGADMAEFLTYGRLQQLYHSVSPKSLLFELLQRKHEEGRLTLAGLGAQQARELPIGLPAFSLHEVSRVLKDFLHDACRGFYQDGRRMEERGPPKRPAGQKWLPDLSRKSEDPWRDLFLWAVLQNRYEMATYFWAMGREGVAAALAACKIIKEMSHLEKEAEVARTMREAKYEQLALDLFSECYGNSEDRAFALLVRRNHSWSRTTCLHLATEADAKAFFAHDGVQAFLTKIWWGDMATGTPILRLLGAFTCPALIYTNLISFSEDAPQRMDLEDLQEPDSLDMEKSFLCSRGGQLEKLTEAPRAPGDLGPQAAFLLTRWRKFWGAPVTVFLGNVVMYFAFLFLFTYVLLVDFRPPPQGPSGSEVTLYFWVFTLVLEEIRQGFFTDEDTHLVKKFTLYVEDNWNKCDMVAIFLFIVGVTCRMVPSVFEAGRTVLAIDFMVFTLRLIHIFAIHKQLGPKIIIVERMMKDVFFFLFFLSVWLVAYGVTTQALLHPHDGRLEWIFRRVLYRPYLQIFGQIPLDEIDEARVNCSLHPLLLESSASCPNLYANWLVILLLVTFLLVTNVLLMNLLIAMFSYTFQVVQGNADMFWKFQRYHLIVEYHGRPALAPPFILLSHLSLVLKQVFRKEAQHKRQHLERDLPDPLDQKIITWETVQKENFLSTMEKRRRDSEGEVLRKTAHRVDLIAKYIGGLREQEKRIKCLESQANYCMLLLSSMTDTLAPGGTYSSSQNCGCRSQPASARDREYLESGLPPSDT
Assay: Immunofluorescence experiment of sodium ion channels in mouse tongue cells stimulated with bitter agent
Assay type: cell-based, mice
Conditions: Bitterant 180 s (2% metronidazole solution)
Attribute: average value of fluorescence brightness, base number removed
Readout kind: average value of fluorescence brightness, base number removed

Compound: O=CC=Cc1ccccc1 [Cinnamaldehyde, 3-phenyl-2-propenal]
Recorded measurement: −0.748
//
Compound: CC1CCC(C(C)C)C(=O)C1 (stereo not drawn) [Menthone, 5-methyl-2-isopropylcyclohexanone]
Recorded measurement: −0.156
//
Compound: CC(C)[C@@H]1CC[C@@H](C)C[C@H]1OC(=O)CCC(=O)O [Menthyl succinate]
Recorded measurement: −0.028
//
Compound: COc1ccc(CCN(C)CCCC(C#N)(c2ccc(OC)c(OC)c2)C(C)C)cc1OC (stereo not drawn) [Verapamil, reference compound]
Recorded measurement: −0.281
//
Compound: NCCCC(=O)O [GABA, 4-aminobutyric acid]
Recorded measurement: −0.158
//
Compound: CC1CCC(C(C)C)C(O)C1 (stereo not drawn) [Menthol, 2-isopropyl-5-methylcyclohexanol]
Recorded measurement: −0.646

----------
Attribute: bitterness value after drug
Assay: Oral spray bitterness masking taste test by volunteers with Coptis chinensis standard bitter solution
Type: in vivo, healthy volunteers
Parameters: key: bitterness value 0.5–5.5; 1 = none, 5 = unbearable
Settings: concentration 0.005% in 60% ethanol; initial bitterness 4.0; 16 cases

Molecule: CC1CCC(C(C)C)C(=O)C1 (centres unmarked) [Menthone, 5-methyl-2-isopropylcyclohexanone]
bitterness value after drug: 2.1

Molecule: CCCCC[C@H](O)CC(=O)CCc1ccc(O)c(OC)c1 [Gingerol, 6-gingerol]
bitterness value after drug: 2.4

Molecule: CCNC(=O)[C@@H]1C[C@H](C)CC[C@H]1C(C)C [Menthamide, N-ethyl-L-menthyl carboxamide]
bitterness value after drug: 1.8

Molecule: CCOC(=O)CNC(=O)[C@@H]1C[C@H](C)CC[C@H]1C(C)C [Cooling agent WS-5]
bitterness value after drug: 1.8

Molecule: CC(C)[C@@H]1CC[C@@H](C)C[C@H]1OC(=O)CCC(=O)O [Menthyl succinate]
bitterness value after drug: 2.8

Molecule: O=CC=Cc1ccccc1 [Cinnamaldehyde, 3-phenyl-2-propenal]
bitterness value after drug: 2.6

Molecule: C=CCc1ccc(OC(C)=O)c(OC)c1 [Eugenol acetate]
bitterness value after drug: 3.2

Molecule: CC(C)=CCCC(C)=CC=O [Citral, citral]
bitterness value after drug: 2.8
